- Protocol notes: Cmax in Sprague-Dawley rat at 10 mg/kg, po measured for 24 hrs by LC-MS/MS analysis
- Format: ADME, organism-based
- Parameters: route oral, dose 10 mg/kg, time 24 hrs
- Reported conditions: in vivo
Quantity kind: Cmax (µg/mL)
Numbers only, in µg/mL.

Incoming: Recorded Cmax of CCC(CC)O[C@@H]1C=C(C(=O)O)C[C@H](N)[C@H]1NC(C)=O [OSELTAMIVIR CARBOXYLATE] , please.
Outgoing: 0.03

----------
- Protocol notes: in vitro
- Reported conditions: human, plasma
Hi there, I'd appreciate the recorded remaining at 10 min for every entry that follows.
Numbers only, in %.

Compound	Readout unit	Endpoint result
CCC(CC)O[C@@H]1C=C(C(=O)O)C[C@H](NC(N)=O)[C@H]1NC(C)=O	%	101

Incoming: Recorded remaining at 10 min of CC(C)[N+](C)(CCOC(=O)C1c2ccccc2Oc2ccccc21)C(C)C.[Br-] [PROPANTHELINE BROMIDE] , please.
Outgoing: 68.2

----------
Hi there, I'd appreciate the recorded inhibition for every entry that follows.
- Tested on: Influenza A virus (A/Anhui/1/2005(H5N1))
- Protocol notes: Inhibition of Influenza A virus (A/Anhui/1/2005(H5N1) Neuraminidase using MUNANA as substrate at 100 uM preincubated for 5 to 15 mins followed by substrate addition and measured after 30 mins by fluorescence spectrophotometric method
- Reported conditions: time 35-45 min
One number for each entry, in %.

Here is how some compounds turned out for inhibition.
CCC(CC)O[C@@H]1C=C(C(=O)O)C[C@H](NC(N)=S)[C@H]1NC(C)=O 51.3
CCC(CC)O[C@@H]1C=C(C(=O)O)C[C@H](NC(=S)N(C(C)C)C(C)C)[C@H]1NC(C)=O 80

# return inhibition for each item in the list
1. CCC(CC)O[C@@H]1C=C(C(=O)O)C[C@H](NC(=O)NCc2ccc(OC)cc2)[C@H]1NC(C)=O
2. CCC(CC)O[C@@H]1C=C(C(=O)O)C[C@H](NC(=O)NC(C)C)[C@H]1NC(C)=O

Outgoing:
[36.5, 32.3]

Incoming: Recorded inhibition of CCC(CC)O[C@@H]1C=C(C(=O)O)C[C@H](NC(=S)NCc2cccc(F)c2)[C@H]1NC(C)=O , please.
Outgoing: 28.1

----------
- Protocol notes: Half life in Sprague-Dawley rat at 50 mg/kg, po measured for 24 hrs by LC-MS/MS analysis
- Type: ADME, organism-based
- Reported conditions: in vivo
Quantity kind: half-life (h)
Give bare numbers, in h.

Incoming: Recorded half-life of CCC(CC)O[C@@H]1C=C(C(=O)O)C[C@H](NC(N)=O)[C@H]1NC(C)=O , please.
Outgoing: 9.95

----------
- Protocol notes: Tmax in Sprague-Dawley rat at 50 mg/kg, po by LC-MS/MS analysis
- Type: ADME, organism-based
- Reported conditions: in vivo
Quantity kind: Tmax (min)
Answers are plain numbers, in min.

Incoming: Recorded Tmax of CCC(CC)O[C@@H]1C=C(C(=O)O)C[C@H](NC(N)=O)[C@H]1NC(C)=O , please.
Outgoing: 45

----------
- Protocol notes: in vivo
- Reported conditions: Sprague-Dawley, rat, iv, 10 mg/kg
Quantity kind: half-life at 24 h (h)
Numbers only, in h.

Compound	Readout unit	half-life at 24 h
CCC(CC)O[C@@H]1C=C(C(=O)O)C[C@H](NC(N)=O)[C@H]1NC(C)=O	h	2.07

Shifting focus to the compound that follows.
Incoming: Recorded half-life at 24 h of CCC(CC)O[C@@H]1C=C(C(=O)O)C[C@H](N)[C@H]1NC(C)=O [OSELTAMIVIR CARBOXYLATE] , please.
Outgoing: 1.6

----------
- Protocol notes: in vitro
- Reported conditions: human, plasma
Quantity kind: remaining at 0.5 h
Note to self: number, then unit, no commentary.

Incoming: Recorded remaining at 0.5 h of CCC(CC)O[C@@H]1C=C(C(=O)O)C[C@H](NC(N)=O)[C@H]1NC(C)=O , please.
Outgoing: 99.1%

----------
- Protocol notes: in vitro
- Reported conditions: human, liver microsomes
Quantity kind: half-life at 1 h (min)
One number for each entry, in min.

Incoming: Recorded half-life at 1 h of O=C(O)Cc1ccccc1Nc1c(Cl)cccc1Cl , please.
Outgoing: 11.7

----------
- Protocol notes: Oral bioavailability in ferret
- Assay type: ADME, organism-based, Mustela putorius furo
- Reported conditions: in vivo
Quantity kind: bioavailability (%)
Numbers only, in %.

Incoming: Recorded bioavailability of CCC(CC)[C@H](NC(C)=O)[C@@H]1[C@H](O)[C@@H](C(=O)O)C[C@H]1NC(=N)N [PERAMIVIR ANHYDROUS] , please.
Outgoing: 2.5

----------
- Protocol notes: Cmax in Sprague-Dawley rat at 50 mg/kg, po measured for 24 hrs by LC-MS/MS analysis
- Format: ADME, organism-based
- Parameters: route oral, dose 50 mg/kg, time 24 hrs
- Reported conditions: in vivo
Quantity kind: Cmax (ng/mL)
Give bare numbers, in ng/mL.

Incoming: Recorded Cmax of CCC(CC)O[C@@H]1C=C(C(=O)O)C[C@H](NC(N)=O)[C@H]1NC(C)=O , please.
Outgoing: 3670

----------
- Protocol notes: in vitro
- Reported conditions: mouse, liver microsomes
Hi there, I'd appreciate the recorded half-life at 1 h for every entry that follows.

# return half-life at 1 h for each item in the list
1. CCC(CC)O[C@@H]1C=C(C(=O)O)C[C@H](NC(N)=O)[C@H]1NC(C)=O
2. O=C(O)Cc1ccccc1Nc1c(Cl)cccc1Cl [DICLOFENAC]

Outgoing:
1: > 145 min; 2: 44.1 min

----------
- Protocol notes: AUC in Sprague-Dawley rat at 10 mg/kg, po measured for 24 hrs by LC-MS/MS analysis
- Assay type: ADME, organism-based
- Parameters: time 24 hrs, dose 10 mg/kg
- Reported conditions: in vivo
Quantity kind: AUC at 24 h (ng·h/mL)
Numbers only, in ng·h/mL.

Incoming: Recorded AUC at 24 h of CCC(CC)O[C@@H]1C=C(C(=O)O)C[C@H](N)[C@H]1NC(C)=O [OSELTAMIVIR CARBOXYLATE] , please.
Outgoing: 300

----------
- Protocol notes: Tmax in Sprague-Dawley rat at 10 mg/kg, po by LC-MS/MS analysis
- Type: ADME, organism-based
- Reported conditions: in vivo
Quantity kind: Tmax (h)
One number for each entry, in h.

Incoming: Recorded Tmax of CCC(CC)O[C@@H]1C=C(C(=O)O)C[C@H](N)[C@H]1NC(C)=O [OSELTAMIVIR CARBOXYLATE] , please.
Outgoing: 4

----------
Hi there, I'd appreciate the recorded AUC at 24 h for every entry that follows.
- Protocol notes: AUC in Sprague-Dawley rat at 10 mg/kg, iv measured for 24 hrs by LC-MS/MS analysis
- Type: ADME, organism-based
- Parameters: dose 10 mg/kg, time 24 hrs
- Reported conditions: in vivo
One number for each entry, in ng·h/mL.

Compound	AUC at 24 h, ng·h/mL
CCC(CC)O[C@@H]1C=C(C(=O)O)C[C@H](N)[C@H]1NC(C)=O [OSELTAMIVIR CARBOXYLATE]	8400

Incoming: Recorded AUC at 24 h of CCC(CC)O[C@@H]1C=C(C(=O)O)C[C@H](NC(N)=O)[C@H]1NC(C)=O , please.
Outgoing: 23200

----------
- Protocol notes: in vitro
- Reported conditions: rat, liver microsomes
Quantity kind: half-life at 1 h (min)
Numbers only, in min.

Incoming: Recorded half-life at 1 h of O=C(O)Cc1ccccc1Nc1c(Cl)cccc1Cl , please.
Outgoing: 12

----------
- Tested on: Influenza A virus (A/Anhui/1/2005(H5N1))
- Protocol notes: Inhibition of Influenza A virus (A/Anhui/1/2005(H5N1) Neuraminidase using MUNANA as substrate at 10 uM preincubated for 5 to 15 mins followed by substrate addition and measured after 30 mins by fluorescence spectrophotometric method
- Reported conditions: time 35-45 min
The source made the active and inactive calls. The rule behind the calls is not given here.
Quantity kind: inhibition

Here is how some molecules turned out for inhibition.
CCC(CC)O[C@@H]1C=C(C(=O)O)C[C@H](NC(=O)Nc2cccc([N+](=O)[O-])c2)[C@H]1NC(C)=O 6.5%
CCC(CC)O[C@@H]1C=C(C(=O)O)C[C@H](NC(N)=S)[C@H]1NC(C)=O 16.9%
CCC(CC)O[C@@H]1C=C(C(=O)O)C[C@H](NC(=O)Nc2ccccc2)[C@H]1NC(C)=O 17.6%
CCC(CC)O[C@@H]1C=C(C(=O)O)C[C@H](NC(=S)NCc2ccc(Br)cc2)[C@H]1NC(C)=O 17%
CCC(CC)O[C@@H]1C=C(C(=O)O)C[C@H](NC(=S)N(C(C)C)C(C)C)[C@H]1NC(C)=O 20%

# return inhibition for each item in the list
1. CCC(CC)O[C@@H]1C=C(C(=O)O)C[C@H](NC(=O)NC(C)C)[C@H]1NC(C)=O
2. CCC(CC)O[C@@H]1C=C(C(=O)O)C[C@H](NC(=S)NCc2cccc(F)c2)[C@H]1NC(C)=O

Outgoing:
["8.3%", "inactive"]

# return inhibition for each item in the list
1. CCC(CC)O[C@@H]1C=C(C(=O)O)C[C@H](NC(=S)Nc2ccc(C)c(C)c2)[C@H]1NC(C)=O
2. CCC(CC)O[C@@H]1C=C(C(=O)O)C[C@H](NC(=O)Nc2cc(OC)c(OC)c(OC)c2)[C@H]1NC(C)=O
3. CCC(CC)O[C@@H]1C=C(C(=O)O)C[C@H](NC(=O)NCCc2ccccc2)[C@H]1NC(C)=O

Outgoing:
1. 15.3%
2. inactive
3. inactive
